Assay system K. pneumoniae (ATCC 13383); read-out recorded as MIC, Gram negative K. pneumoniae.
# unit: mg/L | format: bare number

Enquiry: // MIC, Gram negative K. pneumoniae lookup, key: CC(C)C[C@@H](CN(CC(=O)N[C@@H](CCCCN)CN(CC(N)=O)C(=O)CCc1ccccc1)C(=O)CCc1ccccc1)NC(=O)CN(C[C@H](CCCCN)NC(=O)CN(C[C@H](CCCCN)NC(=O)CN(C[C@H](CC(C)C)NC(=O)CN(C[C@H](CCCCN)NC(=O)CN(C[C@@H](N)CCCCN)C(=O)CCc1ccccc1)C(=O)CCc1ccccc1)C(=O)CCc1ccccc1)C(=O)CCc1ccccc1)C(=O)CCc1ccccc1
Return: 5

Enquiry: // query: CCCCCCCCCCCCCCCC(=O)N[C@@H](C)CN(CC(=O)N[C@@H](C)CN(CC(=O)N[C@@H](CC(C)C)CN(CC(=O)N[C@@H](CC(C)C)CN(CC(=O)N[C@@H](CC(C)C)CN(CC(N)=O)C(=O)CCCN)C(=O)CCCN)C(=O)CCCN)C(C)=O)C(C)=O
Return: 5
